# system_name: Albumin (Bos taurus)
# assay_method_text: compounds binding labelled BSA control protein – biochemical, small-molecule microarray, Alexa647 label, 635/667 nm fluorescence, artefact control for SMM control protein annotation, profiling panel (AID 1118);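 further: score merges 667 nm emission intensity and signal-to-noise per printed compound spot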
# details: BSA-A647 binding, fluorescence 635 nm, higher = more signal
readout_label: composite z-score

>  <molecule>
C=CC[C@@]1(C(=O)N(C)C)N=C(c2ccc(OCCCO)cc2)O[C@@H]1c1ccccc1CN=[N+]=[N-]

>  <readout_label>
composite z-score

>  <result_number>
0.738

$$$$
>  <molecule>
[N-]=[N+]=NCc1ccccc1[C@@H]1OC(c2ccc(OCCCO)cc2)=N[C@]1(Cc1ccccc1N=[N+]=[N-])C(=O)NCC(O)CO (stereo not given in full)

>  <readout_label>
composite z-score

>  <result_number>
0.98

$$$$
>  <molecule>
COCCOC(=O)N1C(=O)[C@@]2(c3cc(C#CCNC(N)=O)ccc31)[C@H](C(=O)Nc1nc3ccccc3s1)[C@H]1C(=O)O[C@H](c3ccccc3)[C@H](c3ccccc3)N1[C@@H]2c1ccccc1OCCO

>  <readout_label>
composite z-score

>  <result_number>
0.074

$$$$
>  <molecule>
CCCC[C@H]1C[C@@H]1[C@@H]1N(C(C)=O)[C@H](c2cccc(OC)c2)CC12CC2

>  <readout_label>
composite z-score

>  <result_number>
0.219

$$$$
>  <molecule>
O=C1C2C=CC(C(O)c3ccc([N+](=O)[O-])cc3)N(Nc3ccccc3F)C2C(=O)N1c1ccccc1 (stereo not given)

>  <readout_label>
composite z-score

>  <result_number>
1.04

$$$$
>  <molecule>
O=C1N(CCS(=O)(=O)c2ccccc2)c2ccccc2C[C@]12N=C(c1ccc(OCCCO)cc1)O[C@@H]2c1ccccc1

>  <readout_label>
composite z-score

>  <result_number>
0.815

$$$$
>  <molecule>
[N-]=[N+]=Nc1ccccc1[C@H]1OC(c2ccc(OCCCO)cc2)=N[C@@]1(Cc1ccccc1)C(=O)NCC(O)CO (stereo not given in full)

>  <readout_label>
composite z-score

>  <result_number>
0.793

$$$$
>  <molecule>
CC(C)=C1C(=O)C(c2ccccc2)=C2CN3C(=O)N(CCc4ccccc4)C(=O)[C@]3(C)[C@H]21

>  <readout_label>
composite z-score

>  <result_number>
0.826

$$$$
>  <molecule>
CC(C)NC(=O)[C@@]1(c2ccc([N+](=O)[O-])cc2)CC(=O)N(CC23CC4CC(CC(C4)C2)C3)[C@@H]1c1ccc(CO)cc1

>  <readout_label>
composite z-score

>  <result_number>
0.0436

$$$$
>  <molecule>
COCCCN1C(=O)[C@@]2(c3ccc([N+](=O)[O-])cc3)CC(=O)N(CC34CC5CC(CC(C5)C3)C4)[C@@H]2c2ccc(CO)cc21

>  <readout_label>
composite z-score

>  <result_number>
-0.0098

$$$$
>  <molecule>
COC(=O)[C@@]1(Cc2ccc(F)cc2)[C@H]2c3cc(C(=O)N4CCCC4)n(CCc4ccccn4)c3C[C@H]2CN1C(=O)c1ccccc1

>  <readout_label>
composite z-score

>  <result_number>
0.634

$$$$
>  <molecule>
C=C(COC)/C(=C/C[C@H](OC(C)=O)c1ccccc1OCCO)c1cc(C(=O)OC)ccc1OC

>  <readout_label>
composite z-score

>  <result_number>
0.524

$$$$
>  <molecule>
COc1ccc([Si](C)(C)[C@@H]2[C@@H](CC(=O)N3CCC[C@H]3CO)O[C@]3(C(=O)N(Cc4cccc(N5CCCCC5=O)c4)c4ccccc43)[C@H]2C)cc1

>  <readout_label>
composite z-score

>  <result_number>
-0.101

$$$$
>  <molecule>
CCCNC(=O)[C@@]1(Sc2ccc(C)cc2)CC(=O)N(Cc2ccccc2Cl)[C@@H]1c1ccc(CO)cc1I

>  <readout_label>
composite z-score

>  <result_number>
-0.266

$$$$
>  <molecule>
O=C1C=C(c2ccccc2)C(=O)C2=C1CC([C@H]1Oc3ccccc3S(=O)(=O)N3CCC[C@@H]13)=CC2

>  <readout_label>
composite z-score

>  <result_number>
0.0895

$$$$

These data points were gathered from PubChem BioAssay.
